procedure.text: Enhancement of bioavailability of drugs given to rats with bioenhancers (plasma drug level by HPLC)
protocol.conditions: drug with Zingiber officinale 50% alcoholic extract of fresh ginger 35 mg/kg, drug dose as in row
Class true (1): % Enhancement in bioavailability, BE from Zingiber officinale at least 80%. Class false (0): % Enhancement in bioavailability, BE from Zingiber officinale below 80%.

molecule	label.value
C=CC1=C(C(=O)O)N2C(=O)[C@@H](NC(=O)/C(=N\O)c3csc(N)n3)[C@H]2SC1	false (0)

Q: Can `CN/C(=N/CCSCc1nc[nH]c1C)NC#N` be said to have % Enhancement in bioavailability, BE from Zingiber officinale at or above 80%?
A: true (1)

Q: Here is the next molecule: CC(C)NCC(O)COc1cccc2ccccc12 (centres unmarked)
A: false (0)

Q: Can you check `Nc1ccc(S(=O)(=O)c2ccc(N)cc2)cc1` next?
A: false (0)

Q: Another molecule to look at: CCc1cc(C(N)=S)ccn1 [Ethionamide]
A: false (0)

Q: Moving on to the next molecule: `CO[C@H]1/C=C/O[C@@]2(C)Oc3c(C)c(O)c4c(O)c(c(/C=N/N5CCN(C)CC5)c(O)c4c3C2=O)NC(=O)/C(C)=C\C=C\[C@H](C)[C@H](O)[C@@H](C)[C@@H](O)[C@@H](C)[C@H](OC(C)=O)[C@@H]1C`
A: false (0)

Q: Entry to check: `Cc1ncc(C[n+]2csc(CCO)c2C)c(N)n1`
A: false (0)

Q: Thanks! And `CSCC[C@H](N)C(=O)O` ?
A: false (0)

Q: Param item: `Cc1cn([C@H]2C[C@H](N=[N+]=[N-])[C@@H](CO)O2)c(=O)[nH]c1=O`
A: true (1)

Q: Then `COc1cccc2c1C(=O)c1c(O)c3c(c(O)c1C2=O)C[C@@](O)(C(=O)CO)C[C@@H]3O[C@H]1C[C@H](N)[C@H](O)[C@H](C)O1` ?
A: false (0)

Q: Now try `CN(Cc1cc(Br)cc(Br)c1N)C1CCCCC1` .
A: false (0)

Q: Same question, `O=c1[nH]cc(F)c(=O)[nH]1` this time
A: true (1)

Q: Now give it for `CC1=C(/C=C/C(C)=C/C=C/C(C)=C/C=C/C=C(C)/C=C/C=C(C)/C=C/C2=C(C)CCCC2(C)C)C(C)(C)CCC1` too.
A: false (0)

Q: Entry `NCCCC[C@H](N[C@@H](CCc1ccccc1)C(=O)O)C(=O)N1CCC[C@H]1C(=O)O` please
A: false (0)

Q: What do we get for CC(=O)N1CCN(c2ccc(OCC3COC(Cn4ccnc4)(c4ccc(Cl)cc4Cl)O3)cc2)CC1 (centres unmarked) ?
A: true (1)

Q: How about this molecule: `Cc1nnc2n1-c1ccc(Cl)cc1C(c1ccccc1)=NC2`
A: false (0)

* * *

procedure.text: Enhancement of bioavailability of drugs given to rats with bioenhancers (plasma drug level by HPLC)
protocol.conditions: drug with Carum carvi bioenhancer (aqueous or 50% alcoholic extract 30 mg/kg or Fraction No. 1 15 mg/kg), drug dose mg/kg
value.kind: % Enhancement in bioavailability, BE from Carum carvi (%)
Numbers only here, please. The scale is %.

Worked examples, 8 compounds total:
compound	recorded.number
CN(Cc1cnc2nc(N)nc(N)c2n1)c1ccc(C(=O)N[C@@H](CCC(=O)O)C(=O)O)cc1 [Methotrexate]	76
CC1(C)S[C@@H]2[C@H](NC(=O)[C@H](N)c3ccc(O)cc3)C(=O)N2[C@H]1C(=O)O	75
CC(C)(C)NCC(O)c1ccc(O)c(CO)c1 (stereo not drawn)	75
C[C@@H]1[C@H](O)[C@@H](C)/C=C/C=C/C=C/C=C/C=C/C=C/C=C/[C@H](O[C@@H]2O[C@H](C)[C@@H](O)[C@H](N)[C@@H]2O)C[C@@H]2O[C@](O)(C[C@@H](O)C[C@@H](O)[C@H](O)CC[C@@H](O)C[C@@H](O)CC(=O)O[C@H]1C)C[C@H](O)[C@H]2C(=O)O	78
CCc1cc(C(N)=S)ccn1 [Ethionamide]	68
NCCCC[C@H](N[C@@H](CCc1ccccc1)C(=O)O)C(=O)N1CCC[C@H]1C(=O)O	79
O=c1[nH]cc(F)c(=O)[nH]1	90
O=C(CCCN1CCC(O)(c2ccc(Cl)cc2)CC1)c1ccc(F)cc1	95

For the next question, use this compound.
Q: What value of % Enhancement in bioavailability, BE from Carum carvi has been reported for the following compound? CC(C)NCC(O)COc1cccc2ccccc12 (stereo not drawn)
A: 68
